System: ATP;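 further: ATP exposure 15 min at 22 °C before imaging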
Assay remarks: switch fluorescence ratio, 500 uM ATP over buffer (Cy3 cluster intensity, sum of 5 cycles each) (fold (ratio)); higher = stronger signal-on switching upon ATP binding; sequences stand for … in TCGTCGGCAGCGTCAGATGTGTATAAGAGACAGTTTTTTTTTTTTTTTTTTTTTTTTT…TC
Study conditions: aptamer strand: ATP DNA aptamer (quencher-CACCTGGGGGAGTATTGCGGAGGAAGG + anchor), 100 nM annealed; ATP concentration: 500 uM
Value type: switch fluorescence ratio

ATTGTGCGAC = 1
TGATCCGGAT = 1.02
GGTTAGTTGG = 0.978
AGGGTGTGGT = 0.984
AAGGTTATCT = 1.01

(Q) Consider the sequence `TTTGAATCTT` and give its measured switch fluorescence ratio.
(A) 1

(Q) Please report the recorded switch fluorescence ratio for `GGCTGGATCT` .
(A) 0.975

(Q) Which switch fluorescence ratio reading was recorded for the sequence `TAATTTGTCG` ?
(A) 0.982

(Q) Form field: reported switch fluorescence ratio of `TGTTTCCGGT`
(A) 1.44

----------
Below, each entry is listed with its recorded switch fluorescence ratio.
Tested on: ATP;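 further: ATP exposure 15 min at 22 °C before imaging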
Assay remarks: switch fluorescence ratio, 500 uM ATP over buffer (Cy3 cluster intensity, sum of 5 cycles each) (fold (ratio)); higher = stronger signal-on switching upon ATP binding; sequences stand for … in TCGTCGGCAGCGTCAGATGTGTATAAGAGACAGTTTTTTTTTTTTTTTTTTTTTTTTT…TC
Study conditions: aptamer strand: ATP DNA aptamer (quencher-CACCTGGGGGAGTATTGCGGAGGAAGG + anchor), 100 nM annealed; ATP concentration: 500 uM
Give your answer as a number; write no unit.

Consider the reported switch fluorescence ratio for these sequences:
AAAGGTAATC = 1.01
AGTTGAGTCT = 0.981
GATTGTTAGA = 0.989

(Q) Fill in: switch fluorescence ratio of `CAGGGGGTAG` is ___
(A) 1.01

(Q) Entry `CGCTGTATCG` : reported switch fluorescence ratio = ?
(A) 0.996

(Q) Entry `ACGCGCGTCG` has what switch fluorescence ratio?
(A) 1

(Q) Looking for the measured switch fluorescence ratio of `GGATGAAGGG` , can you help?
(A) 0.981

(Q) # lookup: switch fluorescence ratio of `TTATTAGTTT`
(A) 0.994

(Q) Which measured switch fluorescence ratio value corresponds to `ATGTTGGGGT` ?
(A) 1

(Q) So what does the record say about switch fluorescence ratio for `TATGAAGGGA` ?
(A) 0.99

(Q) Entry `TATCGTGGGA` : reported switch fluorescence ratio = ?
(A) 1.01

(Q) What value of measured switch fluorescence ratio is listed for `CTGGTTAGGA` ?
(A) 1

----------
Test system: ATP;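 further: ATP exposure 15 min at 22 °C before imaging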
Assay remarks: switch fluorescence ratio, 500 uM ATP over buffer (Cy3 cluster intensity, sum of 5 cycles each) (fold (ratio)); higher = stronger signal-on switching upon ATP binding; sequences stand for … in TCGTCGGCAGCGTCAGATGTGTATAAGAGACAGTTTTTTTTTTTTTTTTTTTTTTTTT…TC
Study conditions: aptamer strand: ATP DNA aptamer (quencher-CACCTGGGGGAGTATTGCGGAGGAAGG + anchor), 100 nM annealed; ATP concentration: 500 uM
# switch fluorescence ratio annotations
Format: numeric value only, no unit, no commentary.

Recorded switch fluorescence ratio, per entry:
ATTTTTGTTC = 1.03
AGTATTTAGG = 0.981
CAGCAATTAT = 2.95

(Q) Look up switch fluorescence ratio for this sequence: `TGGTCGTCGG`
(A) 0.985

(Q) What switch fluorescence ratio value was documented for this sequence, `TTTGGGGCAG` ?
(A) 1.06

(Q) Which switch fluorescence ratio reading was recorded for the sequence `TGAAAAAATC` ?
(A) 0.987

(Q) Look at this sequence and give its reported switch fluorescence ratio. `CAAGAGGGTG`
(A) 1.11

(Q) Given the entry `GAGTTCGTAA` , report its measured switch fluorescence ratio.
(A) 1.46

(Q) Item `GGACGGGTTA` has what recorded switch fluorescence ratio?
(A) 1

(Q) Which switch fluorescence ratio value is on record for `GACTCCTGAG` ?
(A) 0.98

(Q) Entry `AGGGGGTTCG` : reported switch fluorescence ratio = ?
(A) 1.02

(Q) Fill in the blank: the reported switch fluorescence ratio of `GGCGGGTATG` is ____.
(A) 1.02
